Assay: Microsomal stability assay, rat liver microsome
Format: in vitro ADME
Details: liver microsomes, pH 7.4, 0.2 mg/mL, 1 μM compound, 37° C., read-out: Clint RLM
Description: Incubation mixture contained 0.2 mg/mL microsomes, 1 mmol NADPH, and test compound at 1 μM in 100 mmol potassium phosphate buffer at pH 7.4. The mixtures were incubated at 37° C. for 5, 15, and 30 minutes. Aliquots of the mixtures were taken at 0, 5, 15 and 30 minutes and quenched with chilled Acetonitrile:Methanol (50:50) containing internal standard. […] The supernatant was analyzed by LC-MS/MS and half-life, as well as intrinsic clearance (Clint), were calculated.
Criterion: microsomal CLint at 1 μM strictly less than 80 µL/min/mg. Met: YES. Not met: NO.

Completed entries (count: 5):
- Compound: "N#Cc1cnc(Nc2cc(-c3ccccc3OCC3CCNCC3)on2)cn1 [Compound 1.2]"
  Discrete Label: "YES"
- Compound: "N#Cc1cnc(Nc2cc(-c3ccccc3OCCCCN)on2)cn1 [Compound 1.6]"
  Discrete Label: "NO"
- Compound: "CCC(C)N1CC(Oc2ccccc2-c2cc(Nc3cnc(C#N)cn3)no2)C1 (stereo not shown) [Compound 1.18]"
  Discrete Label: "NO"
- Compound: "N#Cc1cnc(Nc2cc(-c3ccccc3OC3CCNC3)on2)cn1 (stereo not shown) [Compound 1.14]"
  Discrete Label: "YES"
- Compound: "CC(C)N1CC(Oc2ccccc2-c2cc(Nc3cnc(C#N)cn3)no2)C1 [Compound 1.13]"
  Discrete Label: "NO"

Turning now to a further compound:
Q) Does the reported microsomal CLint at 1 μM of the following compound sit strictly below 80 µL/min/mg? CN1CCOC(COc2ccccc2-c2cc(Nc3cnc(C#N)cn3)no2)C1 (stereo not shown) [Compound 1.8]
A) NO
